- System: OVCAR-4 ovarian
- assayName: NCI tumour cell line growth inhibition, 48 h
assayEndpoint: TGI

INSERT INTO assay_data (compound, studysystem, result) VALUES
  ('COc1ccc(Cn2cc3c(c2)-c2oncc2CC3)cc1', 'OVCAR-4 ovarian', '> 29.8 µM'),
  ('NC(=O)c1cc2c3ccccc3ccn2c1-c1ccccc1', 'OVCAR-4 ovarian', '> 54.5 µM'),
  ('COC(=O)/C(=N\NC(C)(C)C)C(C(=O)C(=O)Nc1cc(C)ccc1C)c1nc2ccccc2[nH]c1=O (stereo not drawn)', 'OVCAR-4 ovarian', '> 100 µM'),
  ('CNCCn1c(=O)c2cc(OC)c(OC)cc2c2ccc3cc4c(cc3c21)OCO4', 'OVCAR-4 ovarian', '4.26 µM'),
  ('CO[C@H]1SC[C@H](OC(C)=O)[C@H](OC(C)=O)[C@H]1OC(C)=O', 'OVCAR-4 ovarian', '> 100 µM'),
  ('S=C(N/N=C\C(=N/NC(=S)N1CCCCC1)c1ccccc1)N1CCCCC1', 'OVCAR-4 ovarian', '3.43 µM'),
  ('COc1cccc2c1C(=O)c1c(O)c3c(c(O)c1C2=O)C[C@H](O)C[C@@H]3OC1CC(N)C(O)C(C)O1 (stereo partly drawn)', 'OVCAR-4 ovarian', '21.4 µM'),
  ('COC(=O)[C@@H]1CCCCC[C@H]2C(CO)=C(C)C(=O)C12 (stereo partly drawn)', 'OVCAR-4 ovarian', '> 100 µM');
